- Study System: G-protein coupled receptor 35 (Homo sapiens)
- Sequence (Q9HC97 whole entry): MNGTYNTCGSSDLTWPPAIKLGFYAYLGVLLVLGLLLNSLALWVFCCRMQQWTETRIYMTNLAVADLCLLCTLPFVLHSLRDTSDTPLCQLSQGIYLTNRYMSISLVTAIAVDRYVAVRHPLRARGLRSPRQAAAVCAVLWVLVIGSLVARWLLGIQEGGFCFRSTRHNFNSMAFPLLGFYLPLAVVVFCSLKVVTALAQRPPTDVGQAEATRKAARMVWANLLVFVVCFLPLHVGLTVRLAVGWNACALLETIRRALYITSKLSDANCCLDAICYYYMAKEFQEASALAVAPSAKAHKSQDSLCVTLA
- Assay Comment: Agonist activity at human GPR35 receptor expressed in HT-29 cells assessed as desensitization of zaprinast-induced DMR response preincubated for 1 hr followed by zaprinast stimulation by DMR desensitization assay
- Assay type: functional, cell-based
# IC50 values compiled below
State the answer as a number, implicitly in nM.

Observe how each entry below is paired with its result.
> print(dat)
                              smiles.record  unit.spec  quantitative.result
1  O=C(O)c1cc2c(oc1=O)c(Br)cc1cc(-c3nnn[nH]3)c(=O)oc12         nM                   18
2  COc1cccc(-c2cc3cc(C(=O)O)c(=O)oc3c3cc(C(=O)O)c(=O)oc23)c1         nM                    3
3    COc1ccccc1-c1cc2cc(C(=O)O)c(=O)oc2cc1O         nM                17600
4  Cc1c2nc(C(=O)O)cc(Cl)c2cc2c(Cl)cc(C(=O)O)nc12         nM                   15

Shift focus to the following entry.
G-protein coupled receptor 35 (Homo sapiens) data for `Cc1c2oc(=O)c(C(=O)O)cc2cc2cc(C(=O)O)c(=O)oc12` ; its IC50: 42

====

- Study System: G-protein coupled receptor 35 (Homo sapiens)
- Assay Comment: Agonist activity at human GPR35 receptor expressed in HEK293T cells co-expressing beta-arrestin2 assessed as induction of beta-arrestin2 recruitment by BRET assay
- Assay type: functional, cell-based
Quantity Name: EC50

Entry under test: `CCCCc1cc2c(=O)cc(C(=O)O)[nH]c2c2c(=O)cc(C(=O)O)[nH]c12` . Its EC50 was 13 nM

Taken from ChEMBL document CHEMBL4834401.
